Target chain: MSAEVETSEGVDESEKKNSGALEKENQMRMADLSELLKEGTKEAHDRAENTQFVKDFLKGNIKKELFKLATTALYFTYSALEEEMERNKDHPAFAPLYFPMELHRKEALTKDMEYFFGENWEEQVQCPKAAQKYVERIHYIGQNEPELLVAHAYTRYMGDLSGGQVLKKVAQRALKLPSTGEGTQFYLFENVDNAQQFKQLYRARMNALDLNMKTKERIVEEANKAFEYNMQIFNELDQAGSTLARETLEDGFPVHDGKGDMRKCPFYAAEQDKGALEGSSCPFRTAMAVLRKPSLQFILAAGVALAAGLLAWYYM
value-kind: IC50 (µM)
Express your answer in µM, writing the number without its unit.

Query: Query IC50 for c1ccc(CCn2c(CN3CCCC3)nc3ccccc32)cc1
Response: 20
